- Tested on: L1210 leukemia ip in BDF1 mice, survival T/C
- method-description: NCI In Vivo Anticancer Drug Screen. Data for tumor model L1210 Leukemia (intraperitoneal) in B6D2F1 (BDF1) mice
- particulars: endpoint: mean survival time; dose: 25.0 mg/kg/injection; schedule: Q01DX009 (ip); vehicle: Klucel (hydroxypropylcellulose) (HPC); higher = longer survival
Toxic doses and inconclusive results are not listed.
observation-type: T/C

Quick one: T/C for NC(=O)C(c1ccccc1)N1CCCCC1 (configuration not stated) ? 87 % of control

Looking for the measured T/C of C=CCc1c[nH]c(=O)[nH]c1=O.[Hg] , can you help? 98 % of control

Given CCCC1(C)COB(c2ccc(C)cc2)OC1 , state its recorded T/C. 102 % of control

Which T/C value is on record for CC(C)(C)c1ccc(CN2CCN(C(c3ccccc3)c3ccc(Cl)cc3)CC2)cc1 (configuration not stated) ? 91 % of control

Please give the measured T/C for this molecule: Cc1nc2ccccc2nc1CBr 97 % of control

Entry CCN(CC)C(=S)SSC(=S)N(CC)CC has what T/C? 100 % of control

Form field: reported T/C of CC1(C)NC(=O)C(/C=C/c2ccccc2)O1 (configuration not stated) 102 % of control
